# Total Cell Count annotations
# System: Fibroblast
# measurement notes: Multiplex assay against human fibroblast
# Type: toxicity, cell-based
# condition notes: 12 h, 10 µM, compound concentration 10 uM, replicate 2
readout type: Total Cell Count

>  <compound structure>
COc1ccc(S(=O)(=O)N(CCO)c2ccccc2CN(C)C/C=C/c2ccc(Cl)cc2)cc1.O=P(O)(O)O

>  <readout type>
Total Cell Count

>  <recorded result>
94

$$$$
>  <compound structure>
COC(=N)c1nc2ccc3ncnc(Nc4ccc(OC)cc4F)c3c2s1

>  <readout type>
Total Cell Count

>  <recorded result>
82

$$$$
>  <compound structure>
Cc1cc(C)c(S(=O)(=O)N(Cc2ccc(-c3cccc(S(C)(=O)=O)c3)cc2)Cc2ccc(C(F)(F)F)o2)c(C)c1

>  <readout type>
Total Cell Count

>  <recorded result>
81

$$$$
>  <compound structure>
NC(=O)c1cccc(-c2cc(Nc3ccc(OC(F)(F)F)cc3)ncn2)c1

>  <readout type>
Total Cell Count

>  <recorded result>
63

$$$$
>  <compound structure>
Cc1ccc(C(=O)Nc2cccc(C(F)(F)F)c2)cc1Nc1nc(-c2cccnc2)nc2c1cnn2C

>  <readout type>
Total Cell Count

>  <recorded result>
66

$$$$
>  <compound structure>
O=C(Nc1cccnn1)N1CCC(=Cc2cccc(Oc3ccc(C(F)(F)F)cn3)c2)CC1

>  <readout type>
Total Cell Count

>  <recorded result>
85

$$$$
>  <compound structure>
CCOc1cc(C(=O)N2CCC(N3CCN(C)CC3)CC2)ccc1Nc1ncc2c(n1)N(C1CCCC1)c1ccccc1C(=O)N2C

>  <readout type>
Total Cell Count

>  <recorded result>
69

$$$$
>  <compound structure>
C=CCn1c(=O)c2cnc(Nc3ccc(N4CCN(C)CC4)cc3)nc2n1-c1cccc(C(C)(C)O)n1

>  <readout type>
Total Cell Count

>  <recorded result>
81

$$$$
>  <compound structure>
O=C(Nc1ccc(-c2ccnc(Nc3ccc(N4CCOCC4)cc3)n2)cc1)[C@@H]1CCCN1

>  <readout type>
Total Cell Count

>  <recorded result>
65

$$$$

----------
# Tested on: HEK-293T
# measurement notes: Multiplex assay against HEK293T
# Format: toxicity, cell-based
# condition notes: human, 48 h, 10 µM, compound concentration 10 uM, replicate 1
Please mark y if the recorded Population Normal (%) is equal to or greater than 80%, and n if it falls below.

>  <molecule>
CCN1CCN(Cc2ccc(Nc3ncc(F)c(-c4cc(F)c5nc(C)n(C(C)C)c5c4)n3)nc2)CC1.CS(=O)(=O)O

>  <class label>
n

$$$$
>  <molecule>
CN1CCC(=C2c3ccccc3CC(=O)c3sccc32)CC1.O=C(O)/C=C/C(=O)O [KETOTIFEN FUMARATE]

>  <class label>
y

$$$$
>  <molecule>
O=C(Nc1ccc(-c2ccnc(Nc3ccc(N4CCOCC4)cc3)n2)cc1)[C@@H]1CCCN1

>  <class label>
y

$$$$
>  <molecule>
Cc1cc(C)c(S(=O)(=O)N(Cc2ccc(-c3cccc(S(C)(=O)=O)c3)cc2)Cc2ccc(C(F)(F)F)o2)c(C)c1

>  <class label>
y

$$$$
>  <molecule>
O=C1NC(=O)C(c2cnc3ccccn23)=C1c1cn2c3c(cc(F)cc13)CN(C(=O)N1CCCCC1)CC2

>  <class label>
y

$$$$
>  <molecule>
CCCn1c(=O)c2[nH]c(-c3cnn(Cc4cccc(C(F)(F)F)c4)c3)nc2n(CC)c1=O

>  <class label>
n

$$$$
>  <molecule>
Cc1cn(-c2cc(NC(=O)c3ccc(C)c(Nc4nccc(-c5cccnc5)n4)c3)cc(C(F)(F)F)c2)cn1

>  <class label>
n

$$$$
>  <molecule>
CCOc1cc2ncc(C#N)c(Nc3ccc(OCc4ccccn4)c(Cl)c3)c2cc1NC(=O)/C=C/CN(C)C

>  <class label>
n

$$$$
>  <molecule>
COc1cc(N2CCN(C)CC2)ccc1Nc1ncc2c(n1)N(C)c1ccccc1C(=O)N2C

>  <class label>
y

$$$$
>  <molecule>
Cl.O=c1c2cccn2c2ccccc2n1CCCN1CCC(c2ccc(Cl)cc2)CC1

>  <class label>
n

$$$$
>  <molecule>
Cl.O=C(c1ccc(Nc2nccc(-c3cc4ccccc4s3)n2)cc1)N1CCC(N2CCCC2)CC1

>  <class label>
n

$$$$

----------
# Population Pyknosed Nuclei (%) annotations
# System: U2OS
# measurement notes: Multiplex assay against U2OS
# Type: toxicity, cell-based
# condition notes: human, 24 h, 1 µM, compound concentration 1 uM, replicate 2

>  <compound>
COc1ccc(-c2ccc3c(N4CCOCC4)nc(N4C[C@@H](C)O[C@@H](C)C4)nc3n2)cc1CO

>  <Population Pyknosed Nuclei (%)>
3

$$$$
>  <compound>
Cc1cc(C)c(S(=O)(=O)N(Cc2ccc(-c3cccc(S(C)(=O)=O)c3)cc2)Cc2ccc(C(F)(F)F)o2)c(C)c1

>  <Population Pyknosed Nuclei (%)>
5

$$$$
>  <compound>
CCn1c(=O)c(-c2ccc(-c3cncs3)cc2Cl)cc2cnc(Nc3ccc(N4CCN(C)CC4)cc3)nc21

>  <Population Pyknosed Nuclei (%)>
16

$$$$
>  <compound>
CCn1cc(-c2ccnc3[nH]c(-c4cccc(CN(C)C)c4)cc23)c(-c2ccc(NC(=O)N(C)C)cc2)n1

>  <Population Pyknosed Nuclei (%)>
8

$$$$
>  <compound>
CN(C)C(=O)C(CCN1CCC(O)(c2ccc(Cl)cc2)CC1)(c1ccccc1)c1ccccc1.Cl [LOPERAMIDE HYDROCHLORIDE]

>  <Population Pyknosed Nuclei (%)>
22

$$$$
>  <compound>
CCc1cccc(CC)c1NC(=O)c1nn(C)c2c1CCc1cnc(Nc3ccc(N4CCN(C)CC4)cc3OC)nc1-2

>  <Population Pyknosed Nuclei (%)>
64

$$$$
>  <compound>
C=C1/C(=C\C=C2/CCC[C@]3(C)[C@@H]([C@H](C)/C=C/[C@H](C)C(C)C)CC[C@@H]23)C[C@@H](O)C[C@@H]1O

>  <Population Pyknosed Nuclei (%)>
8

$$$$

----------
# Population Fragmented Nuclei (%) annotations
# System: HEK-293T
# measurement notes: Multiplex assay against HEK293T
# Format: toxicity, cell-based
# condition notes: human, 24 h, 1 µM, compound concentration 1 uM, replicate 2

>  <molecule>
C=C1/C(=C\C=C2/CCC[C@]3(C)[C@@H]([C@H](C)/C=C/[C@H](C)C(C)C)CC[C@@H]23)C[C@@H](O)C[C@@H]1O

>  <Population Fragmented Nuclei (%)>
7%

$$$$
>  <molecule>
CNc1cc(Oc2cc(C(=O)Nc3cc(N4CCN(C)CC4)cc(C(F)(F)F)c3)ccc2C)ncn1

>  <Population Fragmented Nuclei (%)>
12%

$$$$
>  <molecule>
Cc1cc(C)c(S(=O)(=O)N(Cc2ccc(-c3cccc(S(C)(=O)=O)c3)cc2)Cc2ccc(C(F)(F)F)o2)c(C)c1

>  <Population Fragmented Nuclei (%)>
6%

$$$$
>  <molecule>
Cl.O=c1c2cccn2c2ccccc2n1CCCN1CCC(c2ccc(Cl)cc2)CC1

>  <Population Fragmented Nuclei (%)>
5%

$$$$
>  <molecule>
CCOc1cc(C(=O)N2CCC(N3CCN(C)CC3)CC2)ccc1Nc1ncc2c(n1)N(C1CCCC1)c1ccccc1C(=O)N2C

>  <Population Fragmented Nuclei (%)>
4%

$$$$
>  <molecule>
Cc1cn(-c2cc(NC(=O)c3ccc(C)c(Nc4nccc(-c5cccnc5)n4)c3)cc(C(F)(F)F)c2)cn1

>  <Population Fragmented Nuclei (%)>
7%

$$$$
>  <molecule>
COc1cc(N2CCN(C)CC2)ccc1Nc1ncc2c(n1)N(C)c1ccccc1C(=O)N2C

>  <Population Fragmented Nuclei (%)>
5%

$$$$
>  <molecule>
CN(C)C(=O)C(CCN1CCC(O)(c2ccc(Cl)cc2)CC1)(c1ccccc1)c1ccccc1.Cl [LOPERAMIDE HYDROCHLORIDE]

>  <Population Fragmented Nuclei (%)>
3%

$$$$
>  <molecule>
CCc1cccc(CC)c1NC(=O)c1nn(C)c2c1CCc1cnc(Nc3ccc(N4CCN(C)CC4)cc3OC)nc1-2

>  <Population Fragmented Nuclei (%)>
3%

$$$$
>  <molecule>
COc1ccc(S(=O)(=O)N(CCO)c2ccccc2CN(C)C/C=C/c2ccc(Cl)cc2)cc1.O=P(O)(O)O

>  <Population Fragmented Nuclei (%)>
1%

$$$$
>  <molecule>
Cc1ccc2nc(NCCN)c3ncc(C)n3c2c1.O=C(O)C(F)(F)F.O=C(O)C(F)(F)F

>  <Population Fragmented Nuclei (%)>
30%

$$$$
>  <molecule>
NC(=O)c1cccc(-c2cc(Nc3ccc(OC(F)(F)F)cc3)ncn2)c1

>  <Population Fragmented Nuclei (%)>
23%

$$$$
>  <molecule>
Cl.O=C(c1ccc(Nc2nccc(-c3cc4ccccc4s3)n2)cc1)N1CCC(N2CCCC2)CC1

>  <Population Fragmented Nuclei (%)>
14%

$$$$
>  <molecule>
CCN1CCN(Cc2ccc(Nc3ncc(F)c(-c4cc(F)c5nc(C)n(C(C)C)c5c4)n3)nc2)CC1.CS(=O)(=O)O

>  <Population Fragmented Nuclei (%)>
5%

$$$$
>  <molecule>
CN1CCN(C(=O)C(C)(C)c2ccc(C(=O)Nc3cn4cc(-c5cc(C(C)(C)C)cc(C(C)(C)C)c5)ccc4n3)cc2)CC1

>  <Population Fragmented Nuclei (%)>
10%

$$$$
>  <molecule>
CCOc1cc2ncc(C#N)c(Nc3ccc(OCc4ccccn4)c(Cl)c3)c2cc1NC(=O)/C=C/CN(C)C

>  <Population Fragmented Nuclei (%)>
26%

$$$$
